Assay target: UniProt:Q96RI1
Sequence (Q96RI1 whole entry, the tested form may be a part): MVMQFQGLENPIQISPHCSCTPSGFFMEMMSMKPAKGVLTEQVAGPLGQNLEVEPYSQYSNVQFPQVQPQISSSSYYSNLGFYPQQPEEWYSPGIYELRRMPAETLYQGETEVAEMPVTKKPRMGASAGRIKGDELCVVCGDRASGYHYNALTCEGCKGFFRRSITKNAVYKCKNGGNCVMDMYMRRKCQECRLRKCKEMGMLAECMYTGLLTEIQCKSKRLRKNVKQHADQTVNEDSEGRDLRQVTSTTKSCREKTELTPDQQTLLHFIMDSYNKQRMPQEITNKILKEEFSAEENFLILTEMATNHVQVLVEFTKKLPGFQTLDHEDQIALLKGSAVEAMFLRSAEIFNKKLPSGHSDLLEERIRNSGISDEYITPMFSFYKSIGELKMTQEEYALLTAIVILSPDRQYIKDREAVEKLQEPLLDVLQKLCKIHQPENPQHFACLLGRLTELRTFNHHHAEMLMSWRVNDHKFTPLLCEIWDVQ
Assay name: Agonist activity at human FXR assessed as SRC1 peptide interaction with receptor ligand binding domain by FRET assay relative to GW-4064
Value type: %max (%)
Numbers only, in %.

Name the recorded %max of the compound listed here: CC(C)c1onc([C@H]2C[C@@H]2c2c(Cl)cccc2Cl)c1COc1ccc(/C=C/c2cccc(C(=O)O)c2)c(Cl)c1 (relative stereo)
38

Please give the documented %max of CC(C)c1onc(COc2c(Cl)cccc2Cl)c1COc1ccc(/C=C/c2cccc(C(=O)O)c2)c(Cl)c1
102

Report %max, nothing else, for this compound: CC(C)c1onc(CCc2ccccc2)c1COc1ccc(/C=C/c2cccc(C(=O)O)c2)c(Cl)c1
96

// Input: CC(C)c1onc(COc2ccccc2)c1COc1ccc(/C=C/c2cccc(C(=O)O)c2)c(Cl)c1 . Output its %max only.
55

Specify %max for CC(C)c1onc(COc2c(F)cccc2F)c1COc1ccc(/C=C/c2cccc(C(=O)O)c2)c(Cl)c1 and stop.
100

Quote %max reported for Cc1cc(Cl)cc(C)c1OCc1noc(C(C)C)c1COc1ccc(/C=C/c2cccc(C(=O)O)c2)c(Cl)c1 please.
99

Consider the record given below.
Tell me measured %max for CC(C)c1onc(COc2ccc(Cl)cc2)c1COc1ccc(/C=C/c2cccc(C(=O)O)c2)c(Cl)c1 please.
58

src = ChEMBL document CHEMBL1136905
